# EC50 listing for each entry below
ASSAY_SYSTEM: S. aureus ClpP (Sa-ClpP) (Staphylococcus aureus)
Construct: made in house; host or cells: E. coli BL21 (DE3)
Sequence (Q2G036 whole entry): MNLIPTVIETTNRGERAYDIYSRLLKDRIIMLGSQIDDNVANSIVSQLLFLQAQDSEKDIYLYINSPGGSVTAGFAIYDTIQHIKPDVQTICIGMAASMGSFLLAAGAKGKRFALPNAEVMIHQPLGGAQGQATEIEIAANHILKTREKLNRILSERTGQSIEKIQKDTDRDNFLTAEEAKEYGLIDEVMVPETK
ASSAY_NOTES: Casein-BODIPY digestion assay (ClpP activation)
Format: biochemical
Numbered stars: 1 amine (or outer) side, 2 acyl side, 3 side chain; on linkers, the order of the positions; unused ones are H or OH. Bridge positions count the residues as written; N and C are the ends. Square brackets hold non-standard residues; d marks the D form. Peptide text beside a SMILES is read from it. * marks the point of attachment. Piperazine(2S-CO,4-Me) = CN1CCN[C@H](C(=O)O)C1; Phe(3-Me) = Cc1cccc(C[C@H](N)C(=O)O)c1; X4 = O=C1CN([*:1])[C@H](C(=O)[*:2])CN1; NH(4-Cl-2-F-phenyl) = Fc1cc(Cl)ccc1N*; Pro(4R-Me) = C[C@H]1CN[C@H](C(=O)O)C1; Hyp = O=C(O)[C@@H]1C[C@@H](O)CN1; NH(3-Cl-phenyl) = Clc1cccc(N*)c1; NH(4-Cl-phenyl) = Clc1ccc(N*)cc1; NH(4-F-phenyl) = Fc1ccc(N*)cc1; aThr = C[C@H](O)[C@H](N)C(=O)O; Pip = O=C(O)[C@@H]1CCCCN1; CO = O=C([*:1])[*:2]; X2 = Fc1cc(N*)ccc1Cl

{"MOLECULE": "Cc1cccc(C[C@H](NC(=O)Nc2ccc(Cl)c(F)c2)C(=O)N[C@H]2COC(=O)[C@@H]3C[C@@H](C)CN3C(=O)[C@H](C)NC(=O)[C@@H]3CN(C)CCN3C(=O)[C@@H]3CCCN3C2=O)c1 [Compound 14] ({X2-CO}-[Phe(3-Me)]SP[Piperazine(2S-CO,4-Me)]A[Pro(4R-Me)]; ester 2-C)", "ASSAY_SYSTEM": "S. aureus ClpP (Sa-ClpP) (Staphylococcus aureus)", "VALUE_MEASURED": "1410 nM"}
{"MOLECULE": "Cc1cccc(C[C@H](NC(=O)Nc2ccc(Cl)cc2F)C(=O)N[C@@H]2C(=O)N3CCC[C@H]3C(=O)N3CC(=O)NC[C@H]3C(=O)N[C@@H](C)C(=O)N3C[C@H](C)C[C@H]3C(=O)O[C@H]2C)c1 [Compound 20] ({NH(4-Cl-2-F-phenyl)-CO}-[Phe(3-Me)][aThr]P[X4]A[Pro(4R-Me)]; ester 2-C)", "ASSAY_SYSTEM": "S. aureus ClpP (Sa-ClpP) (Staphylococcus aureus)", "VALUE_MEASURED": "710 nM"}
{"MOLECULE": "Cc1cccc(C[C@H](NC(=O)Nc2ccc(Cl)cc2)C(=O)N[C@@H]2C(=O)N3C[C@H](O)C[C@H]3C(=O)N3CCCC[C@H]3C(=O)N[C@@H](C)C(=O)N3CCC[C@H]3C(=O)O[C@H]2C)c1 [Compound 59] ({NH(4-Cl-phenyl)-CO}-[Phe(3-Me)][aThr][Hyp][Pip]AP; ester 2-C)", "ASSAY_SYSTEM": "S. aureus ClpP (Sa-ClpP) (Staphylococcus aureus)", "VALUE_MEASURED": "810 nM"}
{"MOLECULE": "Cc1cccc(C[C@H](NC(=O)Nc2ccc(F)cc2)C(=O)N[C@@H]2C(=O)N3C[C@H](O)C[C@H]3C(=O)N3CCCC[C@H]3C(=O)N[C@@H](C)C(=O)N3C[C@H](C)C[C@H]3C(=O)O[C@H]2C)c1 [Compound 79] ({NH(4-F-phenyl)-CO}-[Phe(3-Me)][aThr][Hyp][Pip]A[Pro(4R-Me)]; ester 2-C)", "ASSAY_SYSTEM": "S. aureus ClpP (Sa-ClpP) (Staphylococcus aureus)", "VALUE_MEASURED": "900 nM"}
{"MOLECULE": "Cc1cccc(C[C@H](NC(=O)Nc2ccc(Cl)cc2)C(=O)N[C@@H]2C(=O)N3C[C@H](O)C[C@H]3C(=O)N3CCN(C)C[C@H]3C(=O)N[C@@H](C)C(=O)N3C[C@H](C)C[C@H]3C(=O)O[C@H]2C)c1 [Compound 68] ({NH(4-Cl-phenyl)-CO}-[Phe(3-Me)][aThr][Hyp][Piperazine(2S-CO,4-Me)]A[Pro(4R-Me)]; ester 2-C)", "ASSAY_SYSTEM": "S. aureus ClpP (Sa-ClpP) (Staphylococcus aureus)", "VALUE_MEASURED": "290 nM"}

Exercise: Which value of EC50 has been reported for "Cc1cccc(C[C@H](NC(=O)Nc2ccc3c(c2)OCCO3)C(=O)N[C@H]2COC(=O)[C@@H]3C[C@@H](C)CN3C(=O)[C@H](C)NC(=O)[C@@H]3CCCCN3C(=O)[C@@H]3CCCN3C2=O)c1" in the records?
Key: 650 nM

Exercise: For the molecule shown here, Cc1cccc(C[C@H](NC(=O)Nc2cccc(Cl)c2)C(=O)N[C@@H]2C(=O)N3C[C@H](O)C[C@H]3C(=O)N3CCN(C)C[C@H]3C(=O)N[C@@H](C)C(=O)N3C[C@H](C)C[C@H]3C(=O)O[C@H]2C)c1 [Compound 69] ({NH(3-Cl-phenyl)-CO}-[Phe(3-Me)][aThr][Hyp][Piperazine(2S-CO,4-Me)]A[Pro(4R-Me)]; ester 2-C) , give the reported EC50.
Key: 390 nM

----------
Reported Mouse values for the following compounds.
ASSAY_NOTES: Plasma stability assay
Type: in vitro ADME, mouse
ASSAY_SETUP: mouse, 10 μM
Method: The plasma stability property of early drug discovery compounds can influence the in vivo efficacy of the test compounds/drugs. Human and/or mouse plasma degradation is determined using multiple time points to monitor the rate of disappearance of the parent compound during incubation. Sample preparation for plasma stability was modified from Di et al. (2005) Int. […] The plasma stability was evaluated via the half-life from least-squares fit of the multiple time points based on first-order kinetics.
Numbered stars: 1 amine (or outer) side, 2 acyl side, 3 side chain; on linkers, the order of the positions; unused ones are H or OH. Bridge positions count the residues as written; N and C are the ends. Square brackets hold non-standard residues; d marks the D form. Peptide text beside a SMILES is read from it. * marks the point of attachment. Piperazine(2S-CO,4-Me) = CN1CCN[C@H](C(=O)O)C1; NH(1,3-benzodioxol-5-yl) = c1cc2c(cc1N*)OCO2; Phe(3-OMe) = COc1cccc(C[C@H](N)C(=O)O)c1; Phe(3-Me) = Cc1cccc(C[C@H](N)C(=O)O)c1; NH(4-Cl-2-F-phenyl) = Fc1cc(Cl)ccc1N*; Pro(4R-Me) = C[C@H]1CN[C@H](C(=O)O)C1; CO = O=C([*:1])[*:2]
Note: unit h is implicit; provide only the numeric part.

{"COMPOUND": "COc1cccc(C[C@H](NC(=O)Nc2ccc(Cl)cc2F)C(=O)N[C@H]2COC(=O)[C@@H]3C[C@@H](C)CN3C(=O)[C@H](C)NC(=O)[C@@H]3CN(C)CCN3C(=O)[C@@H]3CCCN3C2=O)c1 [Compound 19] ({NH(4-Cl-2-F-phenyl)-CO}-[Phe(3-OMe)]SP[Piperazine(2S-CO,4-Me)]A[Pro(4R-Me)]; ester 2-C)", "Mouse, h": 12.82}

Here is the next item to consider.
Exercise: Need Mouse, item Cc1cccc(C[C@H](NC(=O)Nc2ccc3c(c2)OCO3)C(=O)N[C@H]2COC(=O)[C@@H]3C[C@@H](C)CN3C(=O)[C@H](C)NC(=O)[C@@H]3CN(C)CCN3C(=O)[C@@H]3CCCN3C2=O)c1 [Compound 17] ({NH(1,3-benzodioxol-5-yl)-CO}-[Phe(3-Me)]SP[Piperazine(2S-CO,4-Me)]A[Pro(4R-Me)]; ester 2-C)
Key: 6.46

----------
ASSAY_SYSTEM: Sa-ClpP (Staphylococcus aureus, UniProt Q2G036)
Sequence (Q2G036 whole entry): as above
Numbered stars: 1 amine (or outer) side, 2 acyl side, 3 side chain; on linkers, the order of the positions; unused ones are H or OH. Bridge positions count the residues as written; N and C are the ends. Square brackets hold non-standard residues; d marks the D form. Peptide text beside a SMILES is read from it. * marks the point of attachment. ξ: configuration not given here. Phe(3-CF3) = N[C@@H](Cc1cccc(C(F)(F)F)c1)C(=O)O; Piperazine(2S-CO,4-Me) = CN1CCN[C@H](C(=O)O)C1; Phe(3-Me) = Cc1cccc(C[C@H](N)C(=O)O)c1; NH(4-Cl-2-F-phenyl) = Fc1cc(Cl)ccc1N*; Pro(4R-Me) = C[C@H]1CN[C@H](C(=O)O)C1; Hyp = O=C(O)[C@@H]1C[C@@H](O)CN1; NH(4-Me-phenyl) = Cc1ccc(N*)cc1; ξNMeThr = CNC(C(=O)O)[C@@H](C)O; aThr = C[C@H](O)[C@H](N)C(=O)O; Pip = O=C(O)[C@@H]1CCCCN1; CO = O=C([*:1])[*:2]; X2 = Fc1cc(N*)ccc1Cl
Consider the cut-off 5 µM. If the recorded IC50 is strictly smaller, the label is yes; if not, the label is no.

Reference set, count: 2
{"COMPOUND": "Cc1cccc(C[C@H](NC(=O)Nc2ccc(Cl)cc2F)C(=O)N[C@@H]2C(=O)N3CCC[C@H]3C(=O)N3CCCC[C@H]3C(=O)N[C@@H](C)C(=O)N3C[C@H](C)C[C@H]3C(=O)O[C@H]2C)c1 [Compound 3] ({NH(4-Cl-2-F-phenyl)-CO}-[Phe(3-Me)][aThr]P[Pip]A[Pro(4R-Me)]; ester 2-C)", "CLASS_NAME": "no"}
{"COMPOUND": "Cc1cccc(C[C@H](NC(=O)Nc2ccc(Cl)c(F)c2)C(=O)N[C@H]2COC(=O)[C@@H]3C[C@@H](C)CN3C(=O)[C@H](C)NC(=O)[C@@H]3CN(C)CCN3C(=O)[C@@H]3CCCN3C2=O)c1 [Compound 14] ({X2-CO}-[Phe(3-Me)]SP[Piperazine(2S-CO,4-Me)]A[Pro(4R-Me)]; ester 2-C)", "CLASS_NAME": "no"}

Exercise: Criterion: IC50 strictly below 5 µM. Is it met by Cc1cccc(C[C@H](NC(=O)Nc2ccc(Cl)cc2F)C(=O)N[C@@H]2C(=O)N3CCC[C@H]3C(=O)N3CCN(C)C[C@H]3C(=O)N[C@@H](C)C(=O)N3C[C@H](C)C[C@H]3C(=O)O[C@H]2C)c1 [Compound 11] ({NH(4-Cl-2-F-phenyl)-CO}-[Phe(3-Me)][aThr]P[Piperazine(2S-CO,4-Me)]A[Pro(4R-Me)]; ester 2-C) ?
Key: yes

Exercise: Please check: IC50 for Cc1cccc(C[C@H](NC(=O)Nc2ccc(Cl)cc2F)C(=O)N[C@@H]2C(=O)N3C[C@H](O)C[C@H]3C(=O)N3CCN(C)C[C@H]3C(=O)N[C@@H](C)C(=O)N3C[C@H](C)C[C@H]3C(=O)O[C@H]2C)c1 [Compound 31] ({NH(4-Cl-2-F-phenyl)-CO}-[Phe(3-Me)][aThr][Hyp][Piperazine(2S-CO,4-Me)]A[Pro(4R-Me)]; ester 2-C) , strictly under 5 µM or not?
Key: yes

Exercise: Decide: IC50 of Cc1ccc(NC(=O)N[C@@H](Cc2cccc(C)c2)C(=O)N[C@H]2COC(=O)[C@@H]3C[C@@H](C)CN3C(=O)[C@H](C)NC(=O)[C@@H]3CN(C)CCN3C(=O)[C@@H]3CCCN3C2=O)cc1 [Compound 15] ({NH(4-Me-phenyl)-CO}-[Phe(3-Me)]SP[Piperazine(2S-CO,4-Me)]A[Pro(4R-Me)]; ester 2-C) strictly below 5 µM?
Key: no

Exercise: For Cc1cccc(C[C@H](NC(=O)Nc2ccc(Cl)cc2F)C(=O)N[C@@H]2C(=O)N3CCC[C@H]3C(=O)N(C)C([C@@H](C)O)C(=O)N[C@@H](C)C(=O)N3C[C@H](C)C[C@H]3C(=O)O[C@H]2C)c1 (stereo partly drawn) [Compound 5] ({NH(4-Cl-2-F-phenyl)-CO}-[Phe(3-Me)][aThr]P[ξNMeThr]A[Pro(4R-Me)]; ester 2-C) , is the recorded IC50 below the cut-off of 5 µM?
Key: yes

Exercise: Determine whether this compound shows IC50 lower than 5 µM (ties excluded): C[C@@H]1C[C@H]2C(=O)OC[C@H](NC(=O)[C@H](Cc3cccc(C(F)(F)F)c3)NC(=O)Nc3ccc(Cl)cc3F)C(=O)N3CCC[C@H]3C(=O)N3CCN(C)C[C@H]3C(=O)N[C@@H](C)C(=O)N2C1 [Compound 18] ({NH(4-Cl-2-F-phenyl)-CO}-[Phe(3-CF3)]SP[Piperazine(2S-CO,4-Me)]A[Pro(4R-Me)]; ester 2-C)
Key: yes
